Test system: Yap1 mRNA
procedure-text: Antisense inhibition of human Yap1 in A-431 cells by cEt gapmers, single dose (Example 2, RTS4814)
Assay type: cell-based
details: Table 23; Yap1 mRNA as percent of untreated control; 3-10-3 cEt gapmers; single dose
Strand notation (5' to 3'): a small letter for the sugar, then the base; units joined by * are phosphorothioate-linked, units joined directly phosphodiester-linked; [ ] holds rarer units or linkages, { } end groups; capitals alone tell only the bases. k = constrained ethyl (cEt); [5mC] = 5-methylcytosine; d = 2'-deoxy (DNA)
assay-readout: YAP1 (% UTC)
Dear colleague, please send the value followed by its unit.

substance: 1074217 (antisense kG*kG*kA*dT*dT*dT*dG*dG*dG*d[5mC]*dT*d[5mC]*d[5mC]*kG*kG*k[5mC]) [Compound 1074217]
assayed-target: Yap1 mRNA
assay-readout: YAP1 (% UTC)
result: 74 % UTC

Find the recorded YAP1 (% UTC) belonging to 1075753 (k[5mC]*kT*kA*dG*dA*dA*d[5mC]*d[5mC]*dT*dT*dT*dT*d[5mC]*k[5mC]*kA*kG; antisense) [Compound 1075753] and report it.
65 % UTC

Find the recorded YAP1 (% UTC) belonging to 1076009 (kT*kA*kG*d[5mC]*dG*dA*dA*dA*dA*dT*dA*dA*d[5mC]*kA*kT*kT; antisense) [Compound 1076009] and report it.
69 % UTC

Find the recorded YAP1 (% UTC) belonging to 1076137 (k[5mC]*kA*k[5mC]*d[5mC]*dA*dA*d[5mC]*dA*dA*d[5mC]*d[5mC]*dT*d[5mC]*kA*kT*kG; antisense) [Compound 1076137] and report it.
45 % UTC

Find the recorded YAP1 (% UTC) belonging to 1076073 (k[5mC]*kT*kT*dT*dA*dA*dG*dG*dT*d[5mC]*dT*dA*dG*kT*kT*kA; antisense) [Compound 1076073] and report it.
47 % UTC

Find the recorded YAP1 (% UTC) belonging to 1076553 (antisense kT*kG*kG*dG*dA*dA*dT*dA*dA*dT*dT*dT*dG*kG*k[5mC]*k[5mC]) [Compound 1076553] and report it.
69 % UTC

Find the recorded YAP1 (% UTC) belonging to 1074249 (antisense kT*kG*kA*dT*d[5mC]*dG*dA*dT*dG*dT*dG*dA*dT*kT*kT*kA) [Compound 1074249] and report it.
23 % UTC

Find the recorded YAP1 (% UTC) belonging to 1075337 (kG*k[5mC]*kT*dT*dA*dT*dA*dT*d[5mC]*d[5mC]*dT*dG*dT*kA*kA*k[5mC]; antisense) [Compound 1075337] and report it.
48 % UTC

----------
procedure-text: Tolerability in Sprague-Dawley rats, plasma chemistry markers (Example 20)
Format: in vivo
details: male Sprague-Dawley rats, 50 mg/kg s.c. weekly for 6 weeks (7 doses), 48 hours after last dose
Strand notation (5' to 3'): a small letter for the sugar, then the base; units joined by * are phosphorothioate-linked, units joined directly phosphodiester-linked; [ ] holds rarer units or linkages, { } end groups; capitals alone tell only the bases. k = constrained ethyl (cEt); [5mC] = 5-methylcytosine; d = 2'-deoxy (DNA)
assay-readout: AST (U/L)
Value expressed in U/L; do not type the unit.

# count of solved cases: 3
substance: 1076453 (GTAATATTGCAATCTG; 3-10-3 cEt gapmer, further chemistry not given here) [compound 1076453]
quantitative-result: 77
//
substance: 1074755 (k[5mC]*kA*k[5mC]*dT*dT*dT*dT*dA*d[5mC]*dA*dT*dT*dA*kG*kG*kA; antisense) [compound 1074755]
quantitative-result: 97
//
substance: 1076481 (k[5mC]*kT*kA*dA*dG*dT*dA*dA*dG*dG*dT*dT*dT*k[5mC]*k[5mC]*k[5mC]) [compound 1076481]
quantitative-result: 91

Find the recorded AST belonging to 958499 (ATTAGAGTATGTGGCA; 3-10-3 cEt gapmer, further chemistry not given here) [compound 958499] and report it.
109

Find the recorded AST belonging to 1097224 (k[5mC]*kT*k[5mC]*dT*dT*dA*dT*dA*dT*dG*dG*dT*dT*kT*kT*kG; antisense) [compound 1097224] and report it.
51

Find the recorded AST belonging to 1076187 (kG*kA*kT*dT*dT*dA*dG*dG*dA*dT*dG*d[5mC]*dA*kT*kG*kG; antisense) [compound 1076187] and report it.
113

----------
Tested on: Yap1 mRNA
procedure-text: Antisense inhibition of human Yap1 in A-431 cells by cEt gapmers, single dose (Example 1, RTS4814)
Format: cell-based
details: Table 2; A-431 cells, free uptake, 2,000 nM, approximately 48 hours, RTS4814; Yap1 mRNA relative to untreated control cells
Strand notation (5' to 3'): a small letter for the sugar, then the base; units joined by * are phosphorothioate-linked, units joined directly phosphodiester-linked; [ ] holds rarer units or linkages, { } end groups; capitals alone tell only the bases. k = constrained ethyl (cEt); [5mC] = 5-methylcytosine; d = 2'-deoxy (DNA)
assay-readout: YAP1 (% UTC)
Value expressed in % UTC; do not type the unit.

# count of solved cases: 3
substance: 715488 (antisense k[5mC]*kT*kA*dT*dT*dA*d[5mC]*dT*dT*d[5mC]*dA*dT*dA*kG*k[5mC]*kT) [Compound 715488]
YAP1 (% UTC): 66
//
substance: 715548 (kA*kG*kT*dT*dG*dT*dT*dG*dA*d[5mC]*d[5mC]*dA*dA*k[5mC]*kT*kA; antisense) [Compound 715548]
YAP1 (% UTC): 117
//
substance: 715599 (antisense kT*kT*k[5mC]*d[5mC]*d[5mC]*dA*dA*dG*d[5mC]*dT*dA*d[5mC]*d[5mC]*k[5mC]*kA*kA) [Compound 715599]
YAP1 (% UTC): 82

Param readout= YAP1 (% UTC); system= Yap1 mRNA; entry= 715614 (antisense kA*kA*kA*dT*dT*dA*d[5mC]*dT*dT*dT*dA*dA*dG*k[5mC]*k[5mC]*kA) [Compound 715614] ; returns value.
110

Param readout= YAP1 (% UTC); system= Yap1 mRNA; entry= 715446 (antisense kA*kT*kT*d[5mC]*d[5mC]*dT*dG*dA*dG*dA*d[5mC]*dA*dT*k[5mC]*k[5mC]*k[5mC]) [Compound 715446] ; returns value.
81

Param readout= YAP1 (% UTC); system= Yap1 mRNA; entry= 715608 (antisense kA*kA*kT*dT*dG*dT*dA*dT*d[5mC]*d[5mC]*dA*dG*dA*k[5mC]*kA*kT) [Compound 715608] ; returns value.
100

----------
Below is a list of entries, each paired with its recorded YAP1 (% UTC) value.
Test system: Yap1 mRNA
procedure-text: Antisense inhibition of human Yap1 in A-431 cells by cEt gapmers, single dose (Example 1, RTS4814)
Type: cell-based
details: Table 1; A-431 cells, free uptake, 2,000 nM, approximately 48 hours, RTS4814; Yap1 mRNA relative to untreated control cells
Strand notation (5' to 3'): a small letter for the sugar, then the base; units joined by * are phosphorothioate-linked, units joined directly phosphodiester-linked; [ ] holds rarer units or linkages, { } end groups; capitals alone tell only the bases. k = constrained ethyl (cEt); [5mC] = 5-methylcytosine; d = 2'-deoxy (DNA)
Dear colleague, please send the value followed by its unit.

# count of solved cases: 2
substance: 715553 (kA*kG*kA*dA*dA*dT*dA*dG*dG*dA*dA*dG*dT*kT*kG*kT; antisense) [Compound 715553]
YAP1 (% UTC): 90 % UTC

substance: 715628 (antisense kG*k[5mC]*k[5mC]*dT*dA*d[5mC]*d[5mC]*dT*dG*dA*d[5mC]*dA*dT*kT*kT*kT) [Compound 715628]
YAP1 (% UTC): 114 % UTC

Find the recorded YAP1 (% UTC) belonging to 715583 (kG*kG*kG*d[5mC]*d[5mC]*dA*d[5mC]*dA*dA*dA*dA*dT*dA*kA*kA*kA; antisense) [Compound 715583] and report it.
164 % UTC

Find the recorded YAP1 (% UTC) belonging to 715502 (antisense k[5mC]*k[5mC]*kA*dG*dA*d[5mC]*dT*dT*dA*dA*dT*dT*d[5mC]*kA*kA*kG) [Compound 715502] and report it.
91 % UTC

Find the recorded YAP1 (% UTC) belonging to 715487 (antisense kA*kT*kT*dA*d[5mC]*dT*dT*d[5mC]*dA*dT*dA*dG*d[5mC]*kT*kT*kA) [Compound 715487] and report it.
22 % UTC

----------
Test system: Yap1 mRNA
procedure-text: Antisense inhibition of human Yap1 in SNU-449 cells by modified oligonucleotides, single dose (Example 5, RTS36584)
Format: cell-based
details: Table 42 (separate experiment); SNU-449 cells, 10,000 cells per well, free uptake, 2,000 nM modified oligonucleotide, approximately 48 hours; RTS36584; normalized to RIBOGREEN; Yap1 mRNA relative to untreated control cells
Strand notation (5' to 3'): a small letter for the sugar, then the base; units joined by * are phosphorothioate-linked, units joined directly phosphodiester-linked; [ ] holds rarer units or linkages, { } end groups; capitals alone tell only the bases. e = 2'-O-(2-methoxyethyl) (MOE); k = constrained ethyl (cEt); [5mC] = 5-methylcytosine; d = 2'-deoxy (DNA)
assay-readout: YAP1 (% UTC)
Value expressed in % UTC; do not type the unit.

# count of solved cases: 3
substance: 1198711 (kG*kA*d[5mC]*dT*dA*dA*dG*dT*dA*dA*dG*dG*kT*eT*kT*e[5mC]; antisense) [Compound 1198711]
quantitative-result: 60
//
substance: 1198211 (kA*kT*dT*dA*dG*dA*dG*dT*dA*dT*dG*eT*eG*eG*k[5mC]*kA; antisense) [Compound 1198211]
quantitative-result: 19
//
substance: 1198680 (antisense k[5mC]*kT*dT*dA*dT*dA*dT*dG*dG*dT*dT*dT*kT*eG*kT*eG) [Compound 1198680]
quantitative-result: 28

Param readout= YAP1 (% UTC); system= Yap1 mRNA; entry= 1198238 (kA*kT*dA*dG*dT*dG*d[5mC]*dT*dT*dT*dG*eG*eA*eA*kG*kA) [Compound 1198238] ; returns value.
88
